test: antimalarial activity against Dd2 strain (AID 2302);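 also: 0% = DMSO untreated growth and 100% = chloroquine plus artemisinin killed control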; conditions: P. falciparum Dd2 in RBCs, LDH growth readout, 72 h; at 2 µM
Activity calls are given as the source filed them.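 The calls were made as follows: active = growth inhibition above 50% at the single 2 µM test dose, taken to imply half-maximal potency below 2 µM; inactive = the rest.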
Parameter call: string, one of yes (1) for active, no (0) for inactive

Exam item: Could you please tell me the result logged for `COc1cc2nc(N3CCC(C(N)=O)CC3)nc(NCc3ccccc3)c2cc1OC` in this assay?
Marked response: no (0)

Exam item: Could you please tell me the result logged for `O=C(Cn1c(CCc2cccc(F)c2F)nc(=O)c2ccccc21)N(CCCN1CCCC1)Cc1ccc(-c2ccc(C(F)(F)F)cc2)cc1` in this assay?
Marked response: yes (1)

Continuing:
Exam item: Could you please tell me the result logged for O=C(Nc1ccc(C(F)(F)F)cc1)c1ccc(S(=O)(=O)NC2CCN(CC3CCCCC3)C2)cc1 (stereo not given) in this assay?
Marked response: no (0)

Exam item: Could you please tell me the result logged for O=C(Nc1ccccc1Cl)N(Cc1cc(Cl)cc(Cl)c1)CC(O)COc1ccc(Cl)c(F)c1 (stereo not given) in this assay?
Marked response: no (0)

Exam item: Could you please tell me the result logged for `FC(F)(F)c1ccc2nccc(NN=CC=Cc3ccccc3)c2c1` in this assay?
Marked response: no (0)
